Test system: Enterobacteria phage lambda
Assay: Induction of Lambda phage supercoiled circular pBluescript KS II DNA cleavage incubated for 30 mins by agarose gel electrophoresis in absence of UV light irradiation
Calls of active or inactive are those of the source. No cut-off for these calls is given here.
endpoint.name: Activity

Consider the reported Activity for these compounds:
[
  {
    "mol": "N/C(=N\\OC(=O)c1ccc([N+](=O)[O-])cc1)c1ccncc1",
    "endpoint.name": "Activity",
    "result": "inactive"
  },
  {
    "mol": "NC(=NOC(=O)c1ccc([N+](=O)[O-])cc1)c1cccnc1",
    "endpoint.name": "Activity",
    "result": "inactive"
  },
  {
    "mol": "O=C(O/N=C/c1cccnc1)c1ccc([N+](=O)[O-])cc1",
    "endpoint.name": "Activity",
    "result": "inactive"
  },
  {
    "mol": "COc1ccc(C(=O)O/N=C(\\N)c2cccnc2)cc1",
    "endpoint.name": "Activity",
    "result": "inactive"
  },
  {
    "mol": "COc1ccc(C(=O)O/N=C/c2cccnc2)cc1",
    "endpoint.name": "Activity",
    "result": "inactive"
  }
]

Asked: // output Activity; input `O=C(O/N=C/c1ccncc1)c1ccc([N+](=O)[O-])cc1` ; system Enterobacteria phage lambda
Given back: inactive

----------
Tested on: Enterobacteria phage lambda
Experiment: Induction of Lambda phage supercoiled circular pBluescript KS II DNA cleavage assessed as single-stranded nick formation at 1000 uM preincubated for 30 mins followed by UV light irradiation under aerobic condition measured after 15 mins by agarose gel electrophoresis
endpoint.name: Activity (%)

Consider the reported Activity for these compounds:
[
  {
    "mol": "N=C(NOC(=O)c1ccccc1)c1cccnc1",
    "assayed.target": "Enterobacteria phage lambda",
    "readout.number": 25
  },
  {
    "mol": "O=C(O/N=C/c1cccnc1)c1ccc([N+](=O)[O-])cc1",
    "assayed.target": "Enterobacteria phage lambda",
    "readout.number": 84
  }
]

(P) O=C(O/N=C/c1cccnc1)c1ccccc1
(Q) CC(=O)O/N=C(\N)c1cccnc1
Asked: Choose between P and Q : whose measured Activity value is numerically larger? Reply briefly: the label of your chosen item.
Given back: P

Recorded values, source ChEMBL document CHEMBL3632533.
